test system: HOP-92 NSCLC; test: NCI-60 one-dose screen, 48 h (100 = growth as untreated, 0 = no growth, -100 = all killed); details: 10 µM unless noted
About 83,000 compounds went through this panel and 20% of them were active in at least one assay; those are over-represented in the sample as a whole. Activity calls are given as the source filed them. Rule for the calls: active = growth percent below 10; inactive = the rest.
measured-attribute: growth

Reference set, count: 4
Cc1ccc2c(c1)c1nc3cc(C)c(C)cc3nc1n2CCN(C)C :: 32.1% (inactive)
O=C1c2ccccc2C(=Cc2ccccc2)c2ccccc21 :: 51.7% (inactive)
Cc1ccc(NC2CC(=O)N(c3c(C)cc(C)cc3C)C2=O)c(C)c1 (stereo not drawn) :: 94.5% (inactive)
CCCCCCCC(=O)SCC/C=C/[C@@H]1CC(=O)NCc2cccc(n2)CN(Cc2ccc(Cl)cc2)CC(=O)N[C@@H](C(C)C)C(=O)O1 :: -16.5% (active)

(Q) Note growth for the molecule shown: "CC(C)(C)c1cc(-n2c(-c3ccc(Cl)cc3)nc3cc(C(=O)Nc4ccc(Cl)cc4)ccc32)n[nH]1"
(A) 38.1% (inactive)

(Q) For the molecule "COc1ccc(/C(=C\c2ccc3c(c2)OCO3)C(=O)Nc2nc3ccccc3s2)cc1OC" , give its reported growth.
(A) 91.4% (inactive)

(Q) For the molecule "N=C(N)N=Nc1ccc(O)cc1" , give its reported growth.
(A) 84% [100 µM] (inactive)

(Q) Using the record for "CC(C)C[C@@H](NC(=O)[C@@H](Cc1ccccc1)NC(=O)c1cnccn1)B1O[C@H]2[C@H](O)[C@@H](C(=O)NCCCC[C@@H]3NC(=O)[C@@H](Cc4ccccc4)NC(=O)[C@H](CC(=O)O)NC(=O)CNC(=O)[C@H](CCCN=C(N)N)NC3=O)O[C@@H](CN)[C@H]2O1" , state its measured growth.
(A) -70.4% (active)

====

tested on: OVCAR-3 ovarian; assay: NCI-60 one-dose screen, 48 h (100 = growth as untreated, 0 = no growth, -100 = all killed); conditions: 10 µM unless noted
Compounds without any hit were thinned out: in the full panel of roughly 83,000, 20% have a hit.
growth values by entry
// note: answer is a bare numeric in %

# example entries with known answers
COCCNC1=C(Cl)C(=O)c2ccccc2C1=O :: 116
C=C1C(=O)O[C@H]2[C@H]1CC/C(Cn1cc(-c3ccc(F)cc3)nn1)=C\CC[C@@]1(C)O[C@@H]21 :: -91.3
COc1ccc2[nH]cc(-c3nc(-c4c[nH]c5ncccc45)cs3)c2c1 :: 50.6

(Q) Report growth from OVCAR-3 ovarian testing of "NCCn1cc(-c2nc(-c3c[nH]c4ncccc34)cs2)c2ccccc21"
(A) 90.8

(Q) Under OVCAR-3 ovarian, report growth for "NC1=NN=C2N(N)C(=O)c3cnn(-c4ccccc4)c3N2c2nc(-c3ccccc3)cc(-c3ccccc3)c21"
(A) 116

(Q) Please indicate recorded growth of "CN1CCN(CCOc2ccc(-c3cnc4c(-c5ccccc5F)cnn4c3)cc2)CC1" measured with OVCAR-3 ovarian.
(A) 20.3

(Q) Provide growth, system OVCAR-3 ovarian, entry "O=S(=O)(NCCCNc1cc(-c2cn(-c3ccccc3)nc2-c2cccc(O)c2)ccn1)c1ccc(F)cc1"
(A) 45.8

====

tested on: HCC-2998 colon; test: NCI-60 one-dose screen, 48 h; conditions: 10 µM unless noted
About 83,000 compounds went through this panel and 20% of them were active in at least one assay; those are over-represented in the sample as a whole. Active and inactive are the calls of the source. Rule for the calls: active = growth percent below 10; inactive = the rest.
Result category, one only: T = active, F = inactive

CCOC(=O)C/C(=C\c1ccccc1)C(C)=O :: F
O=C1C(=O)N(CCCCn2cc(-c3ccccc3)nn2)c2ccccc21 :: F
COc1cccc(-c2nn(-c3ccccc3)cc2-c2ccnc(NCCNS(=O)(=O)c3cccc(F)c3)c2)c1 :: F
c1cc(N2CCCC2)c2nc(-c3[nH]ncc3Nc3ncnc4[nH]ccc34)[nH]c2c1 :: T

Shift focus to the following entry.
(Q) Would you mind telling me which call this test gave "Cc1ccc(/C=C(\C#N)c2cc3ccccc3n2C)cc1" ?
(A) F
